Biological target: Ubiquitin carboxyl-terminal hydrolase BAP1 (Homo sapiens)
Assay: inhibitors of BAP1 deubiquitinase, primary screen, biochemical, Ub-AMC fluorescence, kinetic (AID 436);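 further: 100% = DMSO wells rate and 0% = substrate alone blank rate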
Conditions: recombinant BAP1, Ub-AMC hydrolysis fluorescence kinetic; at 20 µM; stronger effect = lower value
The campaign covered roughly 72,000 compounds. About 350 (0.49%) were called active. The entries come from a sample that favours actives as a whole.
Reported property: activity remaining (% of control) (%)

O=C1CSC(c2ccc([N+](=O)[O-])cc2)N1c1ccc(Br)cc1 (stereo unspecified)	83.1
O=C(Nc1cccnc1)c1ccc(Cl)c([N+](=O)[O-])c1	66
O=C(CSc1nc2sc3c(c2c(=O)[nH]1)CCCC3)NCc1ccccn1	170
Cc1ccc(S(=O)(=O)CCc2nnc(NC(=O)c3ccc(C(C)(C)C)cc3)s2)cc1	50.6
O=C(NCc1ccccc1)c1nn2c(C(F)(F)F)cc(-c3ccccc3)nc2c1Br	70
O=C(Nc1cccc(-c2nc3ccccc3o2)c1)C1CCCCC1	79.6
CCOC(=O)C(=O)N1c2ccccc2C(C)(c2ccccc2)CC1(C)C (stereo unspecified)	108
NC(=O)c1c(NC(=O)c2ccc(Oc3ccccc3)cc2)sc2c1CCCCC2	77.2
CCOC(=O)C(C(=O)OCC)n1ccc(=O)[nH]c1=O	71.2
COc1ccc(-c2nc3cc(C)ccc3o2)cc1N=Cc1cccc(OC)c1O	160
COc1cc(NC(=O)COc2ccccc2)c(OC)cc1Cl	141
